Where do the numbers come from? From PubChem BioAssay AID1159580.

# PROTOCOL: chemical genetic growth profiling, strain panel (AID 1159580);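 note: tested at 20 µM; growth read once vehicle control cultures reached saturation at 30 °C; 1 = growth at the plate median or of vehicle wells; lower values mean less growth of the strain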
# CONDITION_INFO: S. cerevisiae deletion strains, growth OD, locus YOR061W, strain CKA2, stronger effect = lower value
Hit rate of the full screen: of about 5,500 compounds, about 2,000 (36%) were called active. Not shown: some 18% with an inconclusive outcome. The list shows a part of the results.
Binary label based on normalized growth with cut-off 1: below gives true (1), not below gives false (0).

For orientation, consider the following solved cases.
COMPOUND | LABEL
Nc1ccc(S(=O)(=O)Nc2cnc3ccccc3n2)cc1 | true (1)
CC1=CCC2C3(C)C1=CC(=O)OC3CC1C(C)(C)CC(O)C(O)C12C (stereo unspecified) | false (0)

Determine whether this compound shows normalized growth lower than 1 (ties excluded): Cc1cc(C(C)(C)C)c(O)c(C(C)(C)C)c1
true (1)

###

# PROTOCOL: chemical genetic growth profiling, strain panel (AID 1159580);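 note: tested at 20 µM; growth read once vehicle control cultures reached saturation at 30 °C; 1 = growth at the plate median or of vehicle wells; lower values mean less growth of the strain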
# CONDITION_INFO: S. cerevisiae deletion strains, growth OD, locus YDL192W, strain arf1
The campaign covered roughly 5,500 compounds. About 2,000 (36%) were called active. Inconclusive results (about 18%) are left out. Cut-off read from the data, not from the text of the source: active = normalized growth mostly below about 0.91 (no sharp cut-off); inconclusive = no clear call, values can overlap the other calls; inactive = mostly above about 0.92. Some of the results follow.
Allowed answers: 1 (yes) = active, 0 (no) = inactive

// outcome(item) with item = COC(=O)C[C@H]1C(C)(C)C(=O)[C@@H]2CC3C4=CC(=O)O[C@@H](c5ccoc5)[C@]4(C)CCC3[C@@]1(C)C2=O (stereo partly specified)
0 (no)

Lab log entry: C/C=C(/C)C(=O)O[C@@H]1[C@H](OC(C)=O)[C@@]2(CO)C(CC1(C)C)C1=CCC3[C@@]4(C)CC[C@H](O[C@@H]5O[C@H](C(=O)O)[C@@H](O[C@@H]6O[C@H](CO)[C@@H](O)[C@H](O)[C@H]6O)[C@H](O)[C@H]5O[C@@H]5O[C@H](CO)[C@@H](O)[C@H](O)[C@H]5O)[C@](C)(CO)C4CC[C@@]3(C)[C@]1(C)C[C@H]2O (stereo partly specified) — outcome as called in the assay?
0 (no)

Just curious, what result did CC(=O)NCc1c(I)c(NC(C)=O)c(I)c(C(=O)O)c1I get here?
0 (no)

Identify the outcome logged in this assay for the compound shown: C[C@@H]1OC(O[C@H]2[C@H](OC(=O)[C@]34CCC(C)(C)CC3C3=CCC5[C@@]6(C)CC[C@H](OC7O[C@@H](C)[C@H](O[C@@H]8OC[C@@H](O)[C@H](O)[C@H]8O)[C@@H](O)[C@H]7O)C(C)(C)C6CC[C@@]5(C)[C@]3(C)CC4O)OC[C@H](O)[C@H]2O)[C@H](O)[C@H](O)[C@H]1O[C@@H]1O[C@H](CO)[C@@H](O)[C@H](O)[C@H]1O (stereo partly specified)
1 (yes)

Each compound tested received a call. Report the one for CCCOc1ccccc1-c1nc2n[nH]nc2c(=O)[nH]1 .
0 (no)

Check the results log: what was the call for C[C@@H]1CC[C@H]2[C@@H](C)C(=O)O[C@@H]3O[C@@]4(C)CC[C@@H]1[C@]32OO4 ?
1 (yes)

For this compound, state the assay outcome: Cc1cn([C@H]2C[C@H](N=[N+]=[N-])[C@@H](CO)O2)c(=O)[nH]c1=O
0 (no)

Would you mind telling me which call this test gave NC12CC3CC(CC(C3)C1)C2 ?
0 (no)
